Below are IC50 values recorded for UniProt O42275.
Sequence (O42275 whole entry): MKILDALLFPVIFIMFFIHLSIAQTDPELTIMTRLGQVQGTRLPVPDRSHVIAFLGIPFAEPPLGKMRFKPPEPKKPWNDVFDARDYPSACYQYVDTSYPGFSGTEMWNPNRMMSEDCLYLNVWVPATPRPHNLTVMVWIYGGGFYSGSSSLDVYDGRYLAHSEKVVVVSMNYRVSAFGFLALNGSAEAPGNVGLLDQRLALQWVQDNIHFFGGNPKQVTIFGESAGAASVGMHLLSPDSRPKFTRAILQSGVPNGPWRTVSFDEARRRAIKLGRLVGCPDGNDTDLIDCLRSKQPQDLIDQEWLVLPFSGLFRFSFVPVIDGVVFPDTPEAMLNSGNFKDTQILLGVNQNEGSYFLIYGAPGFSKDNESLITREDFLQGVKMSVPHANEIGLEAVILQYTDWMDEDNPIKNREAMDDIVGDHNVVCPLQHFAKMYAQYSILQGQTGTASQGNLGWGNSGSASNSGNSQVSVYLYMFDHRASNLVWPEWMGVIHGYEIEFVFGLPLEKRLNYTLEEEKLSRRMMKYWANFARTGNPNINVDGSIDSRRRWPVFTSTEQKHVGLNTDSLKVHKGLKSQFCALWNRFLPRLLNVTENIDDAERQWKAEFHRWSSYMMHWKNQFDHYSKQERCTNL
EXPERIMENTAL READOUT: IC50 (nM)

[
  {
    "COMPOUND": "CN[C@@H](C)[C@H]1[C@H](O)C[C@@]2(C)[C@@H]3CC[C@@H]4[C@@H](CC[C@H](NC(=O)C(C)C)[C@@]4(C)CO)C[C@H]3C(=O)C[C@]12C",
    "EXPERIMENTAL READOUT": "IC50",
    "MEASUREMENT": 110
  },
  {
    "COMPOUND": "CC(C)C1=N[C@H]2CC=C3CC4C(=O)C[C@]5(C)[C@@H]([C@H](C)N(C)C)[C@H](O)C[C@@]5(C)[C@@H]4CC[C@H]3[C@]2(C)CO1 (stereo partly drawn)",
    "EXPERIMENTAL READOUT": "IC50",
    "MEASUREMENT": 31
  },
  {
    "COMPOUND": "CC[C@H](C)C(=O)N[C@H]1CC=C2C[C@H]3C(=O)C[C@]4(C)[C@@H]([C@H](C)N(C)C)[C@H](O)C[C@@]4(C)[C@@H]3CC[C@H]2[C@]1(C)CO",
    "EXPERIMENTAL READOUT": "IC50",
    "MEASUREMENT": 105
  }
]

----------
pIC50: −log10 of the molar value.
Below are pIC50 values recorded for UniProtKB P22303.
Sequence (P22303 whole entry): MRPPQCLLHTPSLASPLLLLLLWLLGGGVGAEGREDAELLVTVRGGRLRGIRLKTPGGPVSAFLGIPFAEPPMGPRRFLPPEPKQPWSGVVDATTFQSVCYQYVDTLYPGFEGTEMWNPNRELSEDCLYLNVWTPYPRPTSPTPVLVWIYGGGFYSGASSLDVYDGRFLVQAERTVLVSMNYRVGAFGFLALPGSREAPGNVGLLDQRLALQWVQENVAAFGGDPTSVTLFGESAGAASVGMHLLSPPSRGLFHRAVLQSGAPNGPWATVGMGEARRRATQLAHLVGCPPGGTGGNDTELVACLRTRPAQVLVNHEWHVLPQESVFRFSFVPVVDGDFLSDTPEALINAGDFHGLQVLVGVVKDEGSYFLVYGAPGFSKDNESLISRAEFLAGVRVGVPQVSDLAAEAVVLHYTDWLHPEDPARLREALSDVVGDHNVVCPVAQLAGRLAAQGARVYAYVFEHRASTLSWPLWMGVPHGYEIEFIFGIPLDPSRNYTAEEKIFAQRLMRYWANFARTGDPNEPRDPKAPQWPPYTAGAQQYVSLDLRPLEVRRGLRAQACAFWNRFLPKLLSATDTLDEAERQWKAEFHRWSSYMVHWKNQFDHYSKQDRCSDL
EXPERIMENTAL READOUT: pIC50

[
  {
    "COMPOUND": "CC(C)C1=N[C@H]2CC=C3CC4C(=O)C[C@]5(C)[C@@H]([C@H](C)N(C)C)[C@H](O)C[C@@]5(C)[C@@H]4CC[C@H]3[C@]2(C)CO1 (some centres undefined)",
    "MEASUREMENT": 6.52
  },
  {
    "COMPOUND": "CC[C@H](C)C1=N[C@H]2CC=C3C[C@H]4C(=O)C[C@]5(C)[C@@H]([C@H](C)N(C)C)[C@H](O)C[C@@]5(C)[C@@H]4CC[C@H]3[C@]2(C)CO1",
    "MEASUREMENT": 6.58
  },
  {
    "COMPOUND": "CC[C@H](C)C1=N[C@H]2CC[C@]34C[C@]35C(=O)C[C@]3(C)[C@@H]([C@H](C)N(C)C)[C@H](O)C[C@@]3(C)[C@@H]5CC[C@H]4[C@]2(C)CN1",
    "MEASUREMENT": 5.36
  },
  {
    "COMPOUND": "CC(C)C1=N[C@H]2CC=C3C[C@H]4C(=O)C[C@]5(C)[C@@H]([C@H](C)N(C)C)[C@H](OC(=O)C(C)(C)C)C[C@@]5(C)[C@@H]4CC[C@H]3[C@]2(C)CO1",
    "MEASUREMENT": 6.08
  }
]

----------
Below are pIC50 values recorded for Cholinesterase (Homo sapiens, UniProt P06276).
pIC50: −log10 of the molar value.

[
  {
    "MOLECULE": "CN[C@@H](C)[C@H]1[C@H](O)C[C@@]2(C)[C@@H]3CC[C@@H]4[C@@H](CC[C@H](NC(=O)C(C)C)[C@@]4(C)CO)C[C@H]3C(=O)C[C@]12C",
    "pIC50": 5.84
  },
  {
    "MOLECULE": "CCC1=N[C@H]2CC=C3C[C@H]4C(=O)C[C@]5(C)[C@@H]([C@H](C)N(C)C)[C@H](O)C[C@@]5(C)[C@@H]4CC[C@H]3[C@]2(C)CO1",
    "pIC50": "< 5.00"
  },
  {
    "MOLECULE": "CC[C@H](C)C(=O)N[C@H]1CC=C2C[C@H]3C(=O)C[C@]4(C)[C@@H]([C@H](C)N(C)C)[C@H](O)C[C@@]4(C)[C@@H]3CC[C@H]2[C@]1(C)/C=N/Cc1ccccc1",
    "pIC50": "< 5.00"
  },
  {
    "MOLECULE": "C[C@@H]([C@H]1[C@H](O)C[C@@]2(C)[C@@H]3CC[C@@H]4C(=CC[C@@H]5N=C(Cc6ccccc6)OC[C@]54C)C[C@H]3C(=O)C[C@]12C)N(C)C",
    "pIC50": 6.42
  },
  {
    "MOLECULE": "CC[C@H](C)C(=O)N[C@H]1CC=C2C[C@H]3C(=O)C[C@]4(C)[C@@H]([C@H](C)N(C)C)[C@H](O)C[C@@]4(C)[C@@H]3CC[C@H]2[C@]1(C)CN",
    "pIC50": "< 5.00"
  },
  {
    "MOLECULE": "C[C@@H]([C@H]1[C@H](O)C[C@@]2(C)[C@@H]3CC[C@@H]4C(=CC[C@@H]5N=C(C(C)(C)C)OC[C@]54C)C[C@H]3C(=O)C[C@]12C)N(C)C",
    "pIC50": "< 5.00"
  },
  {
    "MOLECULE": "CC(C)C1=N[C@H]2CC[C@H]3C=C4C(=O)C[C@]5(C)[C@@H]([C@H](C)N(C)C)[C@H](O)C[C@@]5(C)[C@@H]4CC[C@H]3[C@]2(C)CO1",
    "pIC50": 5.84
  },
  {
    "MOLECULE": "CC(C)[C@H]1N[C@H]2CC=C3C[C@H]4C(=O)C[C@]5(C)[C@@H]([C@H](C)N(C)C)[C@H](O)C[C@@]5(C)[C@@H]4CC[C@H]3[C@]2(C)CO1",
    "pIC50": "< 5.00"
  },
  {
    "MOLECULE": "CC(C)C1=N[C@H]2CC[C@]34C[C@]35C(=O)C[C@]3(C)[C@@H]([C@H](C)N(C)C)[C@H](O)C[C@@]3(C)[C@@H]5CC[C@H]4[C@]2(C)CN1",
    "pIC50": "< 5.00"
  },
  {
    "MOLECULE": "CC1=N[C@H]2CC=C3C[C@H]4C(=O)C[C@]5(C)[C@@H]([C@H](C)N(C)C)[C@H](O)C[C@@]5(C)[C@@H]4CC[C@H]3[C@]2(C)CO1",
    "pIC50": "< 5.00"
  }
]
